- Measured on: Histone-lysine N-methyltransferase EHMT2 (Homo sapiens) (UniProt Q96KQ7)
- Sequence (Q96KQ7 913-1193 limits assumed): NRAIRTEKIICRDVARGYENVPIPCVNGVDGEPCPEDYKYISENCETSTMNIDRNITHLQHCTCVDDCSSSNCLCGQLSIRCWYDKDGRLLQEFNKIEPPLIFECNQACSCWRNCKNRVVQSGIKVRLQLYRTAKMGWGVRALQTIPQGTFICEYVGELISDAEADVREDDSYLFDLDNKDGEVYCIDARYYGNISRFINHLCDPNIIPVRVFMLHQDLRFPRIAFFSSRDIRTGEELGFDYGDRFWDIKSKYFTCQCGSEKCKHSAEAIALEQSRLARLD
- Test method notes: qHTS Assay for Inhibitors of Histone Lysine Methyltransferase G9a; also: nearly all actives have a fitted effect of over 75% in size; also: potency is read from the fitted curve at half-maximal effect
- Condition summary: G9a H3K9 monomethylation, AlphaScreen, 2 h; series mostly up to 59 µM
About 31,000 (8.9%) of roughly 350,000 compounds were called active. Inconclusive results (about 15%) are left out. Only a selection was taken, and actives are over-represented in it overall.

| Compound | Potency |
| --- | --- |
| Cc1oc(-c2ccccc2F)nc1CN1CCC(C(=O)NCCc2ccc(Cl)cc2)CC1 | inactive |
| Cc1ccc(F)cc1S(=O)(=O)Nc1cccc(C(=O)N2CCCC(C(N)=O)C2)c1 (configuration not stated) | inactive |
| CCn1cc(C(=O)N2CC=C(c3ccccc3)CC2)c(=O)c2ccc(C)nc21 | 79.4 µM (active) |
| COc1cc(OC)c(NC(=O)c2nc(-c3ccncc3)no2)cc1Cl | inactive |
| CCOC(=O)C(Sc1ncc(C#N)c(N)n1)C(C)C (configuration not stated) | 39.8 µM (active) |
| O=C1c2ccccc2-c2ncnc3c(N4CCOCC4)cc(N4CCOCC4)c1c23 | 50.1 µM (active) |
| CCCCC12CN3CC(C)(CN(C1)C3c1ccc(O)c(OC)c1)C2=O (configuration not stated) | inactive |
| NNc1nnc(NN)c2ccccc12 | 25.1 µM (active) |
| CCn1cc(C(=O)Nc2cc(C)ccc2C)c(=O)c2ccc(C)nc21 | inactive |
| CC(NC(=O)C1CCCN(S(=O)(=O)c2ccc(-n3cnnn3)cc2)C1)c1ccc(F)cc1 (configuration not stated) | inactive |
| CCN(CCCNC(=O)c1cc(Nc2ccc(OC)cc2)nc2ccccc12)c1cccc(C)c1 | inactive |
| CCc1cccc(NC(=O)Cn2nc(CC)n3c(cc4cc(C)ccc43)c2=O)c1 | inactive |
| COc1cccc(N(CC(=O)NC2CCCC2)C(=O)Cn2nnc(-c3ccc(C)o3)n2)c1 | inactive |
| CCOc1ccccc1-c1cc(C(=O)N2CCOCC2)c2ccccc2n1 | inactive |
| Cc1ccc(Cc2nc3ccccc3nc2SCC(=O)Nc2cccc(C(F)(F)F)c2)cc1 | inactive |
| Cc1ccc(CN2C(=O)SC(Nc3ccccc3)C2=O)cc1 (configuration not stated) | inactive |
| COC(=O)C1CCN(C(=O)c2ccc3oc(Cc4ccc(Cl)cc4)nc3c2)CC1 | inactive |
| Cc1ccc2[nH]cc(CCNC(=O)C3CCCCC3)c2c1 | inactive |
| CCN(CC)S(=O)(=O)c1ccc2[nH]c(=O)cc(C(=O)N(C)C3CCS(=O)(=O)C3)c2c1 (configuration not stated) | inactive |
| O=C1CCN(CCCc2ccccc2)CCN1CCO | inactive |
| Cc1cc(C)c2nc(-c3ccco3)cc(C(=O)O)c2c1 | 10 µM (active) |
| COc1ccc(-c2cc(C(F)(F)F)n3nc(-c4ccccc4)cc3n2)cc1OC | inactive |
